- assay text: yeast display, Sf9 membrane polyspecificity reagent, FACS + sequencing; frameworks hold sequencing errors
reported property: polyreactivity (PSR sort gate)

QVQLVESGGGLDQAGGSLRLSCAASGLTFAKYAMGWYRQAPGKERELVAAIRSGDDTTYADSVKGRFTISRDNAKNTVYLQMNSLKPEDTAVYYCAARYYRTWHGGFGYWGQGTQVTVSS
high polyreactivity
QVQLVESGGGLVQAGGSLRISCAASGITFSYYAMGWYIQAPGKERELVAAINSGGGSTYYADSVKGRFTISRDNAKNTVYLQMNRLKPEDTAVYYFAARYRSRYDYYYDRDYWGQGTQVTVSS
low polyreactivity
QVQLVESGGGLVQAGGSLRLSCAASGCTFPLYAMGWYRPAPGKERELVAAITSGGGNTYYADSVKGRFTISRDNAKNTVYLQMNSLKPEDTAVYYCAAVGGYKSYYSYEYDYWGQGTQVTVSS
low polyreactivity
QVQLVESGGGLVQAGGSLRLSCAASGFTFLRYAMGWYRPAPGKERELVAVITYGGGSTYYADSVKGRFTISRDNAKNTVYLQMNSLKPEDTAVYYCALYPRRAGGDYWGQGTQVTVSS
high polyreactivity

For this sequence ( QVQLVESGGGLVQAGGSLRLSCAASGRTFTFNAMGWYRQAPGKETELVAAISTSGGSTYYADSVKGRFTISRDNAKNTVYLQMNSLKPEDTAVYYCNTYPYYRAGGSDYWGQGTQVTVSS ), measured polyreactivity (PSR sort gate) is high polyreactivity
